All figures here come from patent US20150368338A1.

Molecular target: T1, IFN-αG (human, UniProt P01569 24-189)
T1 construct: Recombinant, HEK293; also called IFN-α5
Assay: ProteOn SPR, cell supernatant;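 also: each binding measurement used just a single antigen concentration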
Field 'label' (enum: true (1) / false (0)). Set to true (1) when Kd is strictly under 0.04 nM; else false (0).

• IFWM3386 (antibody, IgG1, V domains shown, mAb; IgG1/kappa said of the parent and of selected mAbs; also called IFWB3121) VH: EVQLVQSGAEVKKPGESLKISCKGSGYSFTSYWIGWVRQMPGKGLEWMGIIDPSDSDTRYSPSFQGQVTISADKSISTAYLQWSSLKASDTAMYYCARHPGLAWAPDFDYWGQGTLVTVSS VL: DIQMTQSPSSLSASVGDRVTITCRASQSIAEFLNWYQQKPGKAPKLLIYFASSLQSGVPSRFSGSGSGTDFTLTISSLQPEDFATYYCQQSIDFPLTFGQGTKVEIK = true (1)
• IFWM3393 (antibody, IgG1, V domains shown, mAb; IgG1/kappa said of the parent and of selected mAbs; also called IFWB3128) VH: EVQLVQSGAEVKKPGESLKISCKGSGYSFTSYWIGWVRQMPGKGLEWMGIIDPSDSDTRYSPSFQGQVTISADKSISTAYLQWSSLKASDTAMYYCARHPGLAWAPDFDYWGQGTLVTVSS VL: DIQMTQSPSSLSASVGDRVTITCRASQSITSSLNWYQQKPGKAPKLLIYFASSLQSGVPSRFSGSGSGTDFTLTISSLQPEDFATYYCQQSFDLPLTFGQGTKVEIK = false (0)
• IFWM3398 (antibody, IgG1, V domains shown, mAb; IgG1/kappa said of the parent and of selected mAbs; also called IFWB3133) VH: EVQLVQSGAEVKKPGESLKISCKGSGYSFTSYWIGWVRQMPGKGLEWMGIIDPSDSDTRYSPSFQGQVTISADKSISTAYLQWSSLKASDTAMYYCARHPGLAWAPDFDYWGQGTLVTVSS VL: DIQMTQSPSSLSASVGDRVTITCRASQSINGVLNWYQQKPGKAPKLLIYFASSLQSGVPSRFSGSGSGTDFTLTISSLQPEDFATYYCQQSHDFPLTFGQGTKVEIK = true (1)
• IFWM3375 (antibody, IgG1, V domains shown, mAb; IgG1/kappa said of the parent and of selected mAbs; also called IFWB3110) VH: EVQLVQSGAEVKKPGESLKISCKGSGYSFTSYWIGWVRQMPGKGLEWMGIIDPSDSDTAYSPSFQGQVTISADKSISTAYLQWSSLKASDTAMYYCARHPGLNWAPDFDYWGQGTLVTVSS VL: DIQMTQSPSSLSASVGDRVTITCRASQSIRNNYLNWYQQKPGKAPKLLIYAASSLQSGVPSRFSGSGSGTDFTLTISSLQPEDFATYYCQQGYDTPLTFGQGTKVEIK = true (1)
• IFWM3383 (antibody, IgG1, V domains shown, mAb; IgG1/kappa said of the parent and of selected mAbs; also called IFWB3118) VH: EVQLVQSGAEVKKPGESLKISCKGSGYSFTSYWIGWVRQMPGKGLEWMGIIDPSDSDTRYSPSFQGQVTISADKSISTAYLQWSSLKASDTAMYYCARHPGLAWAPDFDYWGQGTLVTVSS VL: DIQMTQSPSSLSASVGDRVTITCRASQSISKFLNWYQQKPGKAPKLLIYFASSLQSGVPSRFSGSGSGTDFTLTISSLQPEDFATYYCQQSNTLPFTFGQGTKVEIK = false (0)
